Measured Kd of individual entries
# test.target: NGAL (UniProt P80188 21-198)
# Sequence (P80188 21-198): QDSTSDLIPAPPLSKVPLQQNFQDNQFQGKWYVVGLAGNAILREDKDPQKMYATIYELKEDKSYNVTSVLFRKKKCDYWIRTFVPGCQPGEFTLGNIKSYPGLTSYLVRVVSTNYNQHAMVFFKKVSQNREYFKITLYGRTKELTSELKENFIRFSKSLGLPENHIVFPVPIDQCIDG
# assay.text: bead-based fluorescence, 4-concentration estimate; PBSMCT: DPBS with 2.5 mM MgCl2, 0.9 mM CaCl2, 0.01% Tween 20; room temperature, 1 h; bound NGAL detected with iFluor 647 anti-His antibody (6 nM)
# details: protein: commercial; tags: C-terminal His-tag
measured.quantity: Kd

[[record]]
binder = "AGAGGATTTGGTGGATAGT (ssDNA, 5' biotin) [G13.11]"
value_observed = "< 1020 nM"

[[record]]
binder = "CAAGAGGATTTGGTGGATAGTAAATCTTTGC (ssDNA, 5' biotin) [G13.3]"
value_observed = "< 8 nM"

[[record]]
binder = "GAGGATTTGGTGGATAGTAAATCTTTG (ssDNA, 5' biotin) [G13.4]"
value_observed = "< 8 nM"

[[record]]
binder = "TTTGGTGGATAGTAA (ssDNA, 5' biotin) [G13.12]"
value_observed = "< 256 nM"

[[record]]
binder = "ACGTTTTTGGTGGATAGCAAATGCCAGGGCCCTTTTTTG (ssDNA, 5' biotin) [G12.1]"
value_observed = "< 16 nM"

[[record]]
binder = "ACGTTTTTGGTGGATAGCAAATGCCAGGGCC (ssDNA, 5' biotin) [G12.3]"
value_observed = "< 32 nM"

[[record]]
binder = "GTTTTTGGTGGATAGCAAA (ssDNA, 5' biotin) [G12.6]"
value_observed = "< 32 nM"

[[record]]
binder = "ACGTTTTTGGTGGATAGCAAATGCCAG (ssDNA, 5' biotin) [G12.4]"
value_observed = "< 16 nM"

[[record]]
binder = "CAAGAGGATTTGGTGGATAGTAAATCTTTGCCTATCCAG (ssDNA, 5' biotin) [G13.1]"
value_observed = "< 16 nM"

[[record]]
binder = "AGAGGATTTGGTGGATAGTAAAT (ssDNA, 5' biotin) [G13.7]"
value_observed = "< 16 nM"

[[record]]
binder = "AAGAGGATTTGGTGGATAGTAAATCTT (ssDNA, 5' biotin) [G13.5]"
value_observed = "< 8 nM"

[[record]]
binder = "CAAGAGGATTTGGTGGATAGTAAATCTTTGCCTAT (ssDNA, 5' biotin) [G13.2]"
value_observed = "< 16 nM"

[[record]]
binder = "ACGTTTTTGGTGGATAGCAAATGCCAGGGCCCTTT (ssDNA, 5' biotin) [G12.2]"
value_observed = "< 32 nM"

